# EXPERIMENTAL DETAILS: Pharmacokinetic study in rats after oral administration of R-FF or H-FF extract (UHPLC-MS/MS of serum)
# Assay type: in vivo, SD rats
# MEASUREMENT CONTEXT: male, SD, rat, serum, po, 140 g/kg, oral H-FF extract 140 g/kg, mean ± SD, n = 6
READOUT KIND: AUC(0-inf) (µg·h/mL)

O=C(/C=C/c1ccc(O)c(O)c1)O[C@H]1[C@H](O)C[C@](O)(C(=O)O)C[C@H]1O; 401
O=C(C=Cc1ccc(O)c(O)c1)OC1CC(O)(C(=O)O)CC(O)C1OC(=O)C=Cc1ccc(O)c(O)c1 (stereo not shown); 455
O=C(C=Cc1ccc(O)c(O)c1)OC1CC(O)(C(=O)O)CC(O)C1O (stereo not shown); 117

I = O=C(/C=C/c1ccc(O)c(O)c1)O[C@@H]1C[C@](O)(C(=O)O)C[C@@H](O)[C@H]1O
II = O=C(O)/C=C/c1ccc(O)c(O)c1
// max by AUC(0-inf) over [ I , II ] Select an item and report its label. I
(I: 428 µg·h/mL, II: 66.8 µg·h/mL)

###

# EXPERIMENTAL DETAILS: Pharmacokinetic study in rats after oral administration of R-FF or H-FF extract (UHPLC-MS/MS of serum)
# Assay type: in vivo, SD rats
# MEASUREMENT CONTEXT: male, SD, rat, serum, po, 140 g/kg, oral H-FF extract 140 g/kg, mean ± SD, n = 6
READOUT KIND: AUC(0-t) (ng·h/mL)

The following compounds have reported results that may help.
O=C(O)/C=C/c1ccc(O)c(O)c1 [Caffeic acid, caffeic acid]; 24100
O=C(/C=C/c1ccc(O)c(O)c1)O[C@H]1[C@H](O)C[C@](O)(C(=O)O)C[C@H]1O [Cryptochlorogenic acid, cryptochlorogenic acid]; 351000
COc1cc(/C=C/C(=O)O)ccc1O [Ferulic acid, ferulic acid]; 1760
C[C@@H]1O[C@@H](OC[C@H]2O[C@@H](Oc3c(-c4ccc(O)c(O)c4)oc4cc(O)cc(O)c4c3=O)[C@H](O)[C@@H](O)[C@@H]2O)[C@H](O)[C@H](O)[C@H]1O [Rutin, rutin]; 64600

A = O=C(C=Cc1ccc(O)c(O)c1)OC1CC(O)(C(=O)O)CC(O)C1O (stereo not drawn) [Neochlorogenic acid, neochlorogenic acid]
B = O=C(/C=C/c1ccc(O)c(O)c1)O[C@@H]1C[C@](O)(C(=O)O)C[C@@H](O)[C@H]1O [Chlorogenic acid, chlorogenic acid]
Of the two listed items, which has the higher AUC(0-t)? First: A Second: B Kindly state the label of the option you pick. B

###

# EXPERIMENTAL DETAILS: Pharmacokinetic study in rats after oral administration of R-FF or H-FF extract (UHPLC-MS/MS of serum)
# Type: in vivo, SD rats
# MEASUREMENT CONTEXT: male, SD, rat, serum, po, 140 g/kg, oral R-FF extract 140 g/kg, mean ± SD, n = 6
READOUT KIND: Cmax (ng/mL)

O=C(C=Cc1ccc(O)c(O)c1)OC1CC(O)(C(=O)O)CC(O)C1OC(=O)C=Cc1ccc(O)c(O)c1 (stereo not drawn) [Isochlorogenic acid B, isochlorogenic acid B]; 25200

a = O=C(/C=C/c1ccc(O)c(O)c1)O[C@H]1[C@H](O)C[C@](O)(C(=O)O)C[C@H]1O [Cryptochlorogenic acid, cryptochlorogenic acid]
b = O=C(O)/C=C/c1ccc(O)c(O)c1 [Caffeic acid, caffeic acid]
Between the entries labeled a and b , whose measured Cmax is lower? # answer = label of selected item b

a = COc1cc(/C=C/C(=O)O)ccc1O [Ferulic acid, ferulic acid]
b = O=C(/C=C/c1ccc(O)c(O)c1)O[C@@H]1C[C@](O)(C(=O)O)C[C@@H](O)[C@H]1O [Chlorogenic acid, chlorogenic acid]
Hey, which is lower on measured Cmax, a or b ? Please indicate the selected item by its label. a
(a: 253 ng/mL, b: 75600 ng/mL)
